Molecular target: Cyclin-dependent kinase 7 (Homo sapiens)
Test: Inhibition of CDK7 (unknown origin) at 10 uM relative to control
Experimental endpoint: inhibition
Answer shape: numeric part, then the unit.

Observe how each entry below is paired with its result.
[[record]]
compound_smiles = "COc1cc2nc(CNc3nc(N4CCOCC4)nc4c3ncn4-c3cnn(C)c3)[nH]c2cc1Cl"
reported_result = "98%"

[[record]]
compound_smiles = "Fc1cccc(-n2cnc3c(NCc4nc5c(F)c(F)ccc5[nH]4)nc(N4CCOCC4)nc32)c1"
reported_result = "72%"

[[record]]
compound_smiles = "Cc1cc(-n2cnc3c(NCc4nc5c(F)c(F)ccc5[nH]4)nc(N4CCOCC4)nc32)no1"
reported_result = "69%"


// below: inhibition requested for another compound
// query For `Cn1cc(-n2cnc3c(NCc4nc5c(F)c(F)ccc5[nH]4)nc(N4CCOCC4)nc32)cn1` , what is its reported inhibition?
// result 69%

* * *

Molecular target: Cytochrome P450 1A2 (Homo sapiens, UniProt P05177)
Sequence (P05177 whole entry): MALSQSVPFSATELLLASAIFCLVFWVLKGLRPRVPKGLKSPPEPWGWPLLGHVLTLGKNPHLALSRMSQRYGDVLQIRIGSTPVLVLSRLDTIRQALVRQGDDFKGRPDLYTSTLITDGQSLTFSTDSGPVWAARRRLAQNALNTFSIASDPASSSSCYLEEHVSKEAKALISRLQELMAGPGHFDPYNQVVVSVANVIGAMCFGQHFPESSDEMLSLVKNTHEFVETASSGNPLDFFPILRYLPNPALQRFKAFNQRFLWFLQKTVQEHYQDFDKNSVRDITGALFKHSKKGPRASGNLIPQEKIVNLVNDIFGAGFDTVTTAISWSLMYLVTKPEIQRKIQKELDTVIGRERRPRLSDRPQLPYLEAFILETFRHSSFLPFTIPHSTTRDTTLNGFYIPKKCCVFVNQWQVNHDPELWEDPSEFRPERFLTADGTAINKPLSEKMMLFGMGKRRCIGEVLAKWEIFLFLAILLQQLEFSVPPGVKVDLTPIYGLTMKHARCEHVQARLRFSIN
Assay: Inhibition of CYP1A2 (unknown origin)
Type: ADME
I would appreciate it if you labelled entries YES when inhibition (INH) is 10% or higher, otherwise NO.

[[record]]
compound_smiles = "Cc1cc(-n2cnc3c(NCc4nc5c(F)c(F)ccc5[nH]4)nc(N4CCOCC4)nc32)no1"
discrete_label = "NO"

[[record]]
compound_smiles = "Cn1cc(-n2cnc3c(NCc4nc5cc(Cl)c(Cl)cc5[nH]4)nc(N4CCOC[C@H]4CO)nc32)cn1"
discrete_label = "YES"

[[record]]
compound_smiles = "Cn1cc(-n2cnc3c(NCc4nc5cc(Cl)c(Cl)cc5[nH]4)nc(N4CCOCC4)nc32)cn1"
discrete_label = "YES"

[[record]]
compound_smiles = "Fc1ccc2[nH]c(CNc3nc(N4CCOCC4)nc4c3ncn4-c3cscn3)nc2c1F"
discrete_label = "YES"

[[record]]
compound_smiles = "Cn1cc(-n2cnc3c(NCc4nc5cc(F)c(F)cc5[nH]4)nc(N4CCOCC4)nc32)cn1"
discrete_label = "NO"


Consider the additional molecule presented here.
// query Please tell me: is the molecule `Cn1cc(-n2cnc3c(NCc4nc5cc(Cl)c(Cl)cc5[nH]4)nc(N4CCOC[C@@H]4CO)nc32)cn1` at or over 10% in terms of inhibition (INH)?
// result YES

* * *

Molecular target: Cytochrome P450 2D6 (Homo sapiens)
Sequence (P10635 whole entry): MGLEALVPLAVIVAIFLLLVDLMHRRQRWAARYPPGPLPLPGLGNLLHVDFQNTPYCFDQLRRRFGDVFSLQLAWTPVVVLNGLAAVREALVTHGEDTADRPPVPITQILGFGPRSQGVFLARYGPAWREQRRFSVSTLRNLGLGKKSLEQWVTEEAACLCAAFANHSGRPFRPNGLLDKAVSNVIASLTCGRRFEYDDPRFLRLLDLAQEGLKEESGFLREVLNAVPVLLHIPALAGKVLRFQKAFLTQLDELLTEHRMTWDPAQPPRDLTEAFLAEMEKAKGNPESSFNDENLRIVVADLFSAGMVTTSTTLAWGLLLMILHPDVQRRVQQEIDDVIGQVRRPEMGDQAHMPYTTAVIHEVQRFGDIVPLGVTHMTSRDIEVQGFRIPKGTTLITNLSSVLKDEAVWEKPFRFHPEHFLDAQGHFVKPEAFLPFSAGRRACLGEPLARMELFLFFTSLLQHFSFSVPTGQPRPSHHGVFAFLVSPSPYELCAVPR
Assay: Inhibition of CYP2D6 (unknown origin)
Format: ADME
Each record here notes measured inhibition (INH).
Numbers only; they are read as %.

Observe how each entry below is paired with its result.
[[record]]
compound_smiles = "Cn1cc(-n2cnc3c(NCc4nc5cc(Cl)c(Cl)cc5[nH]4)nc(N4CCOC[C@H]4CO)nc32)cn1"
readout_unit = "%"
reported_result = 29

[[record]]
compound_smiles = "Cn1cc(-n2cnc3c(NCc4nc5cc(Cl)c(Cl)cc5[nH]4)nc(N4CCOC[C@@H]4CO)nc32)cn1"
readout_unit = "%"
reported_result = 42


// below: inhibition (INH) requested for another compound
// query Provide value of inhibition (INH) for this record tested with Cytochrome P450 2D6 (Homo sapiens): `Cc1cc(-n2cnc3c(NCc4nc5c(F)c(F)ccc5[nH]4)nc(N4CCOCC4)nc32)no1`
// result 2
